Item-by-item account of ^47 Ca slope
# Test system: ^47 Ca retention
# Assay comment: 47Ca absorption and retention (Example 2)
# Format: in vivo, chicken (Peterson X Arbor Acre cockerels)
# Condition label: Study 2; with disulfiram 30 mg/kg feed; D3 […], derivatives 10 μg/kg feed
Enter the number alone.

The following molecules have reported results that may help.
C=C1/C(=C\C=C2/CCC[C@]3(C)[C@@H]([C@H](C)CCCC(C)(C)O)CC[C@@H]23)C[C@@H](O)C[C@@H]1O [1,25-(OH)2 D3, 1,25-dihydroxycholecalciferol] = -2.11
C=C1CC[C@H](O)C/C1=C/C=C1\CCC[C@]2(C)[C@@H]([C@H](C)CCCC(C)C)CC[C@@H]12 [D3, cholecalciferol, reference compound] = -1.97
C=C1CC[C@H](O)C/C1=C/C=C1\CCC[C@]2(C)[C@@H]([C@H](C)CCCC(C)(C)O)CC[C@@H]12 [25-OHD3, 25-hydroxycholecalciferol] = -1.67

Consider the additional molecule presented here.
stdin: What ^47 Ca slope value was documented for this molecule, CCN(CC)C(=S)SSC(=S)N(CC)CC [Disulfiram, bis(diethylthiocarbamyl)disulfide, reference compound] ?
stdout: -1.59

----------
Item-by-item account of ^47 Ca intercept
# Tested on: ^47 Ca retention
# Assay comment: 47Ca absorption and retention (Example 2)
# Assay type: in vivo, chicken (Peterson X Arbor Acre cockerels)
# Design: key: % of administered 47Ca retained (y-intercept of retention-vs-days plot)
# Condition label: Study 2; with disulfiram 30 mg/kg feed; D3 […], derivatives 10 μg/kg feed

C=C1CC[C@H](O)C/C1=C/C=C1\CCC[C@]2(C)[C@@H]([C@H](C)CCCC(C)(C)O)CC[C@@H]12 [25-OHD3, 25-hydroxycholecalciferol] = 74
CCN(CC)C(=S)SSC(=S)N(CC)CC [Disulfiram, bis(diethylthiocarbamyl)disulfide, reference compound] = 73
C=C1CC[C@H](O)C/C1=C/C=C1\CCC[C@]2(C)[C@@H]([C@H](C)CCCC(C)C)CC[C@@H]12 [D3, cholecalciferol, reference compound] = 72

Consider the additional compound presented here.
stdin: What ^47 Ca intercept value was documented for this compound, C=C1/C(=C\C=C2/CCC[C@]3(C)[C@@H]([C@H](C)CCCC(C)(C)O)CC[C@@H]23)C[C@@H](O)C[C@@H]1O [1,25-(OH)2 D3, 1,25-dihydroxycholecalciferol] ?
stdout: 70

----------
# Assay comment: 16-day body weight and gain:feed (Example 2)
# Type: in vivo, chicken (Peterson X Arbor Acre cockerels)
# Condition label: Study 3; D3 […], derivatives 10 μg/kg feed
Recorded metric: Gain/feed

[2H]C([2H])([2H])C(O)(CCC[C@@H](C)[C@H]1CC[C@H]2/C(=C/C=C3/C[C@@H](O)C[C@H](O)C3=C)CCC[C@]12C)C([2H])([2H])[2H] [1,25-(OH)2-26,27[^1 H]6 D3] = .687

stdin: What Gain/feed value was documented for this molecule, C=C1/C(=C\C=C2/CCC[C@]3(C)[C@@H]([C@H](C)CC[C@@H](F)C(C)(C)O)CC[C@@H]23)C[C@@H](O)C[C@@H]1O [1,25-(OH)2-24R-FD3, 1,25-dihydroxy-24-fluorocholecalciferol] ?
stdout: .663

stdin: What Gain/feed value was documented for this molecule, C=C1/C(=C\C=C2/CCC[C@]3(C)[C@@H]([C@H](C)CCCC(C)C)CC[C@@H]23)C[C@@H](O)C[C@@H]1O [1-OHD3, 1-hydroxycholecalciferol] ?
stdout: .661

stdin: What Gain/feed value was documented for this molecule, C=C1CC[C@H](O)C/C1=C/C=C1\CCC[C@]2(C)[C@@H]([C@H](C)CCCC(C)C)CC[C@@H]12 [D3, cholecalciferol, reference compound] ?
stdout: .709

stdin: What Gain/feed value was documented for this molecule, C=C1/C(=C\C=C2/CCC[C@]3(C)[C@@H]([C@H](C)CCCC(C)(C)O)CC[C@@H]23)C[C@@H](O)C[C@@H]1O [1,25-(OH)2 D3, 1,25-dihydroxycholecalciferol] ?
stdout: .66

stdin: What Gain/feed value was documented for this molecule, C=C1/C(=C\C=C2/CCC[C@]3(C)[C@@H]([C@H](C)CCC(O)C(C)(C)O)CC[C@@H]23)C[C@@H](O)C[C@@H]1O (stereo partly shown) [1,24,25-(OH)2 D3, 1,24,25-trihydroxycholecalciferol] ?
stdout: .688

stdin: What Gain/feed value was documented for this molecule, C=C1CC[C@H](O)C/C1=C/C=C1\CCC[C@]2(C)[C@@H]([C@H](C)CCC(O)C(C)(C)O)CC[C@@H]12 (stereo partly shown) [24,25-(OH)2 D3, 24,25-dihydroxycholecalciferol, reference compound] ?
stdout: .696

----------
# Assay comment: 16-day body weight and gain:feed (Example 2)
# Assay type: in vivo, chicken (Peterson X Arbor Acre cockerels)
# Condition label: Study 1; with disulfiram 30 mg/kg feed; D3 […], derivatives 10 μg/kg feed
Recorded metric: 16 Day wt.
Enter the number alone.

The following compounds have reported results that may help.
C=C1CC[C@H](O)C/C1=C/C=C1\CCC[C@]2(C)[C@@H]([C@H](C)CCCC(C)C)CC[C@@H]12 [D3, cholecalciferol, reference compound] = 432
C=C1CC[C@H](O)C/C1=C/C=C1\CCC[C@]2(C)[C@@H]([C@H](C)CCCC(C)(C)O)CC[C@@H]12 [25-OHD3, 25-hydroxycholecalciferol] = 398
C=C1/C(=C\C=C2/CCC[C@]3(C)[C@@H]([C@H](C)CCCC(C)(C)O)CC[C@@H]23)C[C@@H](O)C[C@@H]1O [1,25-(OH)2 D3, 1,25-dihydroxycholecalciferol] = 426

Consider the additional compound presented here.
stdin: What 16 Day wt. value was documented for this compound, CCN(CC)C(=S)SSC(=S)N(CC)CC [Disulfiram, bis(diethylthiocarbamyl)disulfide, reference compound] ?
stdout: 433

----------
# Assay comment: 16-day body weight and gain:feed (Example 2)
# Type: in vivo, chicken (Peterson X Arbor Acre cockerels)
# Condition label: Study 2; with disulfiram 30 mg/kg feed; D3 […], derivatives 10 μg/kg feed
Recorded metric: Gain:Feed

C=C1CC[C@H](O)C/C1=C/C=C1\CCC[C@]2(C)[C@@H]([C@H](C)CCCC(C)(C)O)CC[C@@H]12 [25-OHD3, 25-hydroxycholecalciferol] = .728
C=C1/C(=C\C=C2/CCC[C@]3(C)[C@@H]([C@H](C)CCCC(C)(C)O)CC[C@@H]23)C[C@@H](O)C[C@@H]1O [1,25-(OH)2 D3, 1,25-dihydroxycholecalciferol] = .684
C=C1CC[C@H](O)C/C1=C/C=C1\CCC[C@]2(C)[C@@H]([C@H](C)CCCC(C)C)CC[C@@H]12 [D3, cholecalciferol, reference compound] = .666

Consider the additional compound presented here.
stdin: What Gain:Feed value was documented for this compound, CCN(CC)C(=S)SSC(=S)N(CC)CC [Disulfiram, bis(diethylthiocarbamyl)disulfide, reference compound] ?
stdout: .671

----------
# Assay comment: 16-day body weight and gain:feed (Example 2)
# Type: in vivo, chicken (Peterson X Arbor Acre cockerels)
# Condition label: Study 2; with disulfiram 30 mg/kg feed; D3 […], derivatives 10 μg/kg feed
Recorded metric: 16 day wt
Enter the number alone.

The following compounds have reported results that may help.
C=C1CC[C@H](O)C/C1=C/C=C1\CCC[C@]2(C)[C@@H]([C@H](C)CCCC(C)(C)O)CC[C@@H]12 [25-OHD3, 25-hydroxycholecalciferol] = 395
C=C1CC[C@H](O)C/C1=C/C=C1\CCC[C@]2(C)[C@@H]([C@H](C)CCCC(C)C)CC[C@@H]12 [D3, cholecalciferol, reference compound] = 374
CCN(CC)C(=S)SSC(=S)N(CC)CC [Disulfiram, bis(diethylthiocarbamyl)disulfide, reference compound] = 394

stdin: What 16 day wt value was documented for this compound, C=C1/C(=C\C=C2/CCC[C@]3(C)[C@@H]([C@H](C)CCCC(C)(C)O)CC[C@@H]23)C[C@@H](O)C[C@@H]1O [1,25-(OH)2 D3, 1,25-dihydroxycholecalciferol] ?
stdout: 377

----------
# Tested on: tibial dyschondroplasia;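 further: score 3 means a large cartilage mass in the proximal tibia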
# Assay type: in vivo, chicken (Peterson X Arbor Acre cockerels)
# Condition label: Study 4; D3 […], derivatives 10 μg/kg feed
Recorded metric: #3/total

C=C1CC[C@H](O)C/C1=C/C=C1\CCC[C@]2(C)[C@@H]([C@H](C)CCCC(C)C)CC[C@@H]12 [D3, cholecalciferol, reference compound] = 20/58
C=C1/C(=C\C=C2/CCC[C@]3(C)[C@@H]([C@H](C)CCC(O)C(C)(C)O)CC[C@@H]23)C[C@@H](O)C[C@@H]1O (stereo partly shown) [1,24,25-(OH)2 D3, 1,24,25-trihydroxycholecalciferol] = 8/57
C=C1CC[C@H](O)C/C1=C/C=C1\CCC[C@]2(C)[C@@H]([C@H](C)CCC(O)C(C)(C)O)CC[C@@H]12 (stereo partly shown) [24,25-(OH)2 D3, 24,25-dihydroxycholecalciferol, reference compound] = 25/56
C=C1/C(=C\C=C2/CCC[C@]3(C)[C@@H]([C@H](C)CCCC(C)(C)O)CC[C@@H]23)C[C@@H](O)C[C@@H]1O [1,25-(OH)2 D3, 1,25-dihydroxycholecalciferol] = 4/52
C=C1/C(=C\C=C2/CCC[C@]3(C)[C@@H]([C@H](C)CC[C@@H](F)C(C)(C)O)CC[C@@H]23)C[C@@H](O)C[C@@H]1O [1,25-(OH)2-24R-FD3, 1,25-dihydroxy-24-fluorocholecalciferol] = 9/56

stdin: What #3/total value was documented for this compound, C=C1/C(=C\C=C2/CCC[C@]3(C)[C@@H]([C@H](C)CCCC(C)C)CC[C@@H]23)C[C@@H](O)C[C@@H]1O [1-OHD3, 1-hydroxycholecalciferol] ?
stdout: 8/57

stdin: What #3/total value was documented for this compound, [2H]C([2H])([2H])C(O)(CCC[C@@H](C)[C@H]1CC[C@H]2/C(=C/C=C3/C[C@@H](O)C[C@H](O)C3=C)CCC[C@]12C)C([2H])([2H])[2H] [1,25-(OH)2-26,27[^1 H]6 D3] ?
stdout: 4/58
